# SYSTEM_UNDER_TEST: FGFR4-WT (Homo sapiens (Human), UniProt P22455)
# Sequence (P22455 22-802): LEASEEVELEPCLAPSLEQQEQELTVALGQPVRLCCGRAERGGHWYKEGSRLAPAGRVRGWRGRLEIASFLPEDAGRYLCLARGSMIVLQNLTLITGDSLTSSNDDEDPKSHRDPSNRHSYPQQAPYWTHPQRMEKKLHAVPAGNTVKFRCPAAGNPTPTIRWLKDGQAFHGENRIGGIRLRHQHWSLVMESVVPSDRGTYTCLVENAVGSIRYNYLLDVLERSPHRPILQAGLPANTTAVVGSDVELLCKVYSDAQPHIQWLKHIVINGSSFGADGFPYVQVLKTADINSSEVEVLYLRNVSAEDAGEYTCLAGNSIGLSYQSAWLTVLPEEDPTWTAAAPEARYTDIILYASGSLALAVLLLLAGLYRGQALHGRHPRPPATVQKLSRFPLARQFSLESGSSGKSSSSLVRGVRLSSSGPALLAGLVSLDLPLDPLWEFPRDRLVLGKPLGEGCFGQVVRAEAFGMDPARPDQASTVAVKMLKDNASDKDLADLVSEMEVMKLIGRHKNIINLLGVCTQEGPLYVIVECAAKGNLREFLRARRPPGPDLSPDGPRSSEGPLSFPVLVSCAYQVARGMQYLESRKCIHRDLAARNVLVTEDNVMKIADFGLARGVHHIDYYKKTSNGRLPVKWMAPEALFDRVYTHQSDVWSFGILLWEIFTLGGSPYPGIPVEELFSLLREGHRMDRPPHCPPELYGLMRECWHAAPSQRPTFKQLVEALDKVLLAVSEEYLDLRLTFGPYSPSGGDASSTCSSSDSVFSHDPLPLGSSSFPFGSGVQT
# ASSAY_SUMMARY: Omnia assay for potency assessment against FGFR4 enzyme
# Format: biochemical
# CONDITION_DETAILS: method a: [FGFR4-WT]=10 nM (Invitrogen), [ATP]=300 uM, [Y10-Sox]=10 uM
pIC50: −log10 of the molar value.
MEASURED_ATTRIBUTE: pIC50

compound=COc1cc(OC)cc(N2Cc3cnc(Nc4ccccc4)nc3N(C)C2=O)c1 observed_measurement="6.30 to 7.00"
compound=C=CC(=O)Nc1cc(C2=CCN(CC)CC2)ccc1Nc1ncc2c(n1)N(C)C(=O)N(c1cc(OC)cc(OC)c1)C2 observed_measurement="> 7.00"
compound=C=CCCN1C(=O)N(c2cc(OC)cc(OC)c2)Cc2cnc(Nc3ccccc3NC(=O)C=C)nc21 observed_measurement="> 7.00"
compound=C=CC(=O)N[C@H]1COCC[C@H]1Nc1ncc2c(n1)N(C)C(=O)N(c1c(Cl)c(OC)cc(OC)c1Cl)C2 observed_measurement="6.30 to 7.00"
compound="C=CC(=O)NC1COCC1Nc1ncc2c(n1)N(C)C(=O)N(c1cc(OC)c(OC)c(OC)c1)C2 (stereo not shown)" observed_measurement="< 6.00"
compound=C=CC(=O)Nc1ccccc1Nc1ncc2cc(-c3c(Cl)c(OC)cc(OC)c3Cl)c(=O)n(C)c2n1 observed_measurement="> 7.00"
compound="C=CC(=O)NC1COCC1Nc1ncc2c(n1)N(Cc1cc[nH]n1)C(=O)N(c1c(Cl)c(OC)cc(OC)c1Cl)C2 (stereo not shown)" observed_measurement="> 7.00"
